- Tested on: circulating lymphocytes
- assay-info: Lymphopenia assay: measurement of circulating lymphocytes after oral gavage
- Type: in vivo, Mice (C57bl/6 male)
- reported-conditions: mice, oral gavage 0.5 and 5 mg/kg in 30% HPCD, blood 5 and 24 hours after administration
The following compounds are listed with their measured Lymphopenia (ED50 mg/kg) values.

(Q) Write down Lymphopenia (ED50 mg/kg) measured for item CC(N)(CO)c1ccc2cc(O[C@H]3CC[C@H](C(C)(C)C)CC3)ccc2n1 (relative stereo) [Example 18]
(A) 0.5 to 5 mg/kg

(Q) Write down Lymphopenia (ED50 mg/kg) measured for item CC(N)(CO)c1ccc2cc(O[C@H]3CC[C@H](C(C)(C)C)CC3)ccc2n1 (relative stereo) [Example 24]
(A) >5 mg/kg
